Test system: ACHN renal
ASSAY EXPLANATION: NCI tumour cell line growth inhibition, 48 h
QUANTITY NAME: TGI

| MOLECULE | MEASURED VALUE |
| --- | --- |
| O=C([CH-]C(=O)c1ccccc1)c1ccccc1.O=C([CH-]C(=O)c1ccccc1)c1ccccc1.O=C([CH-]C(=O)c1ccccc1)c1ccccc1.[Cl-].[Hf+4] | > 100 µM |
| COc1cccc(C2SCc3nc4ccccc4n32)c1 (centres undefined) | > 100 µM |
| O=[N+]([O-])c1oc2ccc3ccccc3c2c1CCO | 3.68 µM |
| COC(=O)C1[C@H](c2ccc3c(c2)OCO3)OC(=O)[C@]1(C(=O)OC)C(=O)c1ccc(OC)c(OC)c1 (some centres undefined) | > 100 µM |
| CCCC[C@H]1C(=O)O[C@H](C)[C@H](NC(=O)c2cccc(NC=O)c2OC)C(=O)O[C@@H](C)[C@@H]1OC(=O)CC(C)C (tested in a mixture with another compound) | 41.4 µM |
| CN(C)CCS(=O)(=O)Nc1cc(-c2ccc3ncc(C#N)c(Nc4ccc(F)c(Cl)c4)c3c2)cnc1Cl | > 100 µM |
| Cc1cc2c(cc1Cl)SC(c1ccccc1O)NS2(=O)=O (centres undefined) | > 100 µM |
| CCOC(=O)C1SC(=Nc2ccc(Cl)cc2Cl)N=C1C (centres undefined) | > 100 µM |
| O=C1CC(CC(OCc2ccccc2)C(OCc2ccccc2)C(COCc2ccccc2)OCc2ccccc2)CC(=O)N1 (centres undefined) | > 100 µM |

* * *

Recorded TGI by entry
Tested on: NCI-H23 lung
ASSAY EXPLANATION: NCI tumour cell line growth inhibition, 48 h

| COMPOUND | MEASUREMENT UNITS | LT GT EQ | TGI |
| --- | --- | --- | --- |
| Oc1ccccc1/C=N\NC(=S)N/N=C/c1ccccc1O | µM | > | 100 |
| Nc1cc(Cl)ccc1SSc1ccc(Cl)cc1N | µM | = | 20.4 |
| CC(C)c1ccc(/C=C/c2cc(C(=O)NNC(=O)NC3CCCCC3)nc(=S)[nH]2)cc1 | µM | > | 100 |
| O=[N+]([O-])c1ccc2c(c1)C(c1ccccc1Cl)=Nc1c(n[nH]c1-c1cccnc1)N2 | µM | > | 25 |
| O=[N+]([O-])C(/C=C(\Cl)[N+](=O)[O-])=C(N1CCCCC1)N1CCCCC1 | µM | > | 100 |
| CCNCCNc1cc(-c2ccc(C(F)(F)F)cc2)c(C#N)c2nc3cc(Cl)c(Cl)cc3n12 | µM | = | 3.52 |
| CC/C=C\C[C@H](O)C/C=C1/C(=O)C=C[C@@H]1C/C=C\CCCCO | µM | = | 5.95 |
| Cn1cc(C2=C(c3cn(CCCCCO)c4ccccc34)C(=O)NC2=O)c2ccccc21 | µM | = | 16.5 |
| O=C1CC(N2C(=O)/C(=C/C(Cl)=C\c3ccc([N+](=O)[O-])cc3)SC2=S)C(=O)N1c1ccc(O)cc1 (stereo not given) | µM | = | 3.52 |
| CCOc1cccc(-c2cc(=O)c3cc4c(cc3[nH]2)OCO4)c1 | µM | > | 100 |

* * *

Recorded TGI by entry
Test system: HOP-62 NSCLC
ASSAY EXPLANATION: NCI tumour cell line growth inhibition, 48 h

| COMPOUND | TARGET OR SYSTEM | TGI |
| --- | --- | --- |
| COc1cc(/C=C2\N=C(c3ccccc3)N(c3nc4ccc(Sc5ccccc5)cc4[nH]3)C2=O)cc(OC)c1OC | HOP-62 NSCLC | > 100 µM |
| COc1ccc(-c2[nH]nc(N)c2-c2cc(OC)c(OC)c(OC)c2)cc1 | HOP-62 NSCLC | > 100 µM |
| C[N+]12C=CC=C1C(N1CCCC1)c1scc(-c3ccc(F)cc3)c12 (stereo unspecified) | HOP-62 NSCLC | > 100 µM |
| CC(C)=NNC(=S)NC12CC3CC(CC(C3)C1)C2 | HOP-62 NSCLC | > 100 µM |
| CCC1(c2ccc(N)cc2)CCC(=O)NC1=O (stereo unspecified) | HOP-62 NSCLC | > 1580 µM |
| O=C1/C(=C/c2ccc(O)c(O)c2)CC/C1=C\c1ccc(O)c(O)c1 | HOP-62 NSCLC | 39 µM |

* * *

Test system: SNB-75 CNS
ASSAY EXPLANATION: NCI tumour cell line growth inhibition, 48 h

| COMPOUND STRING | LT GT EQ | TGI [µM] |
| --- | --- | --- |
| O=C(CSSCC(=O)OCCS(=O)(=O)Nc1ccc(Br)cc1)OCCS(=O)(=O)Nc1ccc(Br)cc1 | = | 66.6 |
| CC(C)(C)c1cc(-c2nc3ccc(N4CCN(CCO)CC4)cc3[nH]2)cc(C(C)(C)C)c1O | = | 4.55 |
| O=C(Nc1cccc(C(=O)NCCCO)c1)/C(=C/c1ccccc1)NC(=O)c1ccccc1 | > | 100 |
| CC/C=C\C[C@H](O)C/C=C1/C(=O)C=C[C@@H]1C/C=C\CCCCO | = | 38.4 |
| C#CCOCn1cc(C)c(=O)[nH]c1=O | > | 100 |

* * *

Tested on: NCI/ADR-RES ovarian
ASSAY EXPLANATION: NCI tumour cell line growth inhibition, 48 h
QUANTITY NAME: TGI

| MOLECULE | QUANTITY NAME | MEASURED VALUE |
| --- | --- | --- |
| C=CC1(c2ccc3ccccc3c2)OCC(CC)O1 (stereo not drawn) | TGI | > 100 µM |
| Cc1cc2c(cc1Cl)SC(NNC1=NCCN1)=NS2(=O)=O | TGI | > 10 µM |
| O=C(O)c1cn(C2CC2)c2cc(N3CCN(Cc4c(O)ccc5ccccc45)CC3)c(F)cc2c1=O | TGI | > 100 µM |
| O=C1CC(N2C(=O)/C(=C/C(Cl)=C\c3ccc([N+](=O)[O-])cc3)SC2=S)C(=O)N1c1ccc(O)cc1 (stereo not drawn) | TGI | 12.1 µM |
| O=c1cccc2n1CC1CNC[C@H]2C1 | TGI | > 100 µM |
| O=S(=O)(CCC[C@H]1[C@@H](CCOCc2ccccc2)C2CCCN1O2)c1ccccc1 (stereo partly drawn) | TGI | > 100 µM |
| CC(C)C(=O)c1c(C(F)(F)F)n([O-])c2ccccc2[n+]1=O | TGI | 5.46 µM |
| O=c1[nH]c(=O)n(CCOCP(=O)(O)O)nc1Br | TGI | > 100 µM |
| CC(C)Cc1ccc(C(C)C(=O)NCc2ccc(Cn3c(=O)sn(CCCI)c3=O)cc2)cc1 (stereo not drawn) | TGI | 5.19 µM |
| COC(=O)/N=[N+](\[O-])C(c1ccccc1)c1ccccc1 | TGI | > 100 µM |
| CC(=O)n1[nH]c(=O)n(-c2ccccc2)c1=O | TGI | > 100 µM |
| COC(=O)c1oc2c(C(=O)/C=C/c3ccc(OC)cc3)c(OCCN3CCOCC3)ccc2c1C | TGI | > 24 µM |
| Cc1cc(=O)n2c3c(c4c(cc13)c(CN(C)C)cc(=O)n4C)OC2 | TGI | > 76.9 µM |
| CCC1(c2ccc(N)cc2)CCC(=O)NC1=O (stereo not drawn) | TGI | 4820 µM |
| CC(=O)Oc1ccc2cc(-c3ccc(OC(C)=O)c(OC(C)=O)c3)c(=O)oc2c1 | TGI | > 100 µM |
| NC(N)=N/N=C/c1c(-c2cccnc2)nc2sc(Cl)cn12 | TGI | > 100 µM |
| Cn1cc(C2=C(c3cn(CCCCCO)c4ccccc34)C(=O)NC2=O)c2ccccc21 | TGI | > 22.5 µM |
| O=c1oc2ccc(Br)cc2c(=O)n1-c1ccc(Cl)cc1F | TGI | 6.95 µM |
| COc1ccc(-c2cn(-c3cc(OC)c(OC)c(OC)c3)c(=O)[nH]2)cc1OC | TGI | > 100 µM |
| COc1ccc2c(c1)CCCc1c-2nc2ccccc2c1N | TGI | 33.6 µM |
| Cn1c(=O)c(Oc2ccc(F)cc2F)cc2cnc(NC3CCOCC3)nc21 | TGI | > 25 µM |
| N=C(N)c1ccc(N=Nc2c(O)ccc3cc4c(N=Nc5ccc(C(=N)N)cc5)c(O)ccc4cc23)cc1 | TGI | > 100 µM |
| CCC1CCC2c3c([nH]c4ccc(C)cc34)C3C(=O)N(N(C)C)C(=O)C3C2C1 (stereo not drawn) | TGI | > 53.5 µM |
| CCOC(=O)/C(=C\NC(C)(C)CO)c1nc2ccccc2[nH]1 | TGI | > 100 µM |
| Cc1cccc(Cl)c1NC(=O)c1cnc(Nc2cc(N3CCOCC3)cc(S(C)(=O)=O)c2)s1 | TGI | > 10 µM |
| NC(=O)CCC(NC(=O)c1c2ccccc2nc2ccccc12)C(=O)O (stereo not drawn) | TGI | > 100 µM |
| C=C1C(=O)O[C@H]2[C@H]1CC/C(CNC(=O)/C=C/c1ccccc1F)=C\CC[C@@]1(C)O[C@@H]21 | TGI | 26.9 µM |
| CN(C)CC1CCC/C(=C\c2ccccc2)C1=O (stereo not drawn) | TGI | 41.6 µM |
| CCCCC1(O)CC2CC1C(C)C2(C)C (stereo not drawn) | TGI | > 100 µM |
| CCOC(=O)N/N=C(\CC)OCC | TGI | > 100 µM |
| O=C1CS(=O)(=O)C(c2cccc(Oc3ccccc3)c2)N1C1CC1 (stereo not drawn) | TGI | > 100 µM |
| CCOC(=O)C(NC(=O)CC)(Nc1ccc(F)cc1F)C(F)(F)F (stereo not drawn) | TGI | > 100 µM |
| CCCN(CCC)c1ccc(C=O)c(C)c1 | TGI | > 100 µM |
| CC(C)(C)n1c(=O)n2n(c1=O)C1c3cccc4cccc(c34)C2C2c3cccc4cccc(c34)C1n1c(=O)n(C(C)(C)C)c(=O)n12 | TGI | > 100 µM |
| O=c1[nH]nc(Cc2ccccc2)n1/N=C/c1ccc([N+](=O)[O-])cc1 | TGI | > 100 µM |
| CC(C)Cn1cnc2c(Cl)nc3ccccc3c21 | TGI | > 100 µM |
| COc1cc(/C=C/C(=O)c2c(-c3ccc(F)cc3)nc3sc(C)nn23)cc(OC)c1OC | TGI | 9.91 µM |
| C=C(Cl)C(C)(Cl)CCC(Cl)C(C)C (stereo not drawn) | TGI | > 100 µM |
| CS(=O)(=O)O[C@H]1[C@H](O)c2ccccc2[C@@H]1N=[N+]=[N-] | TGI | > 100 µM |
| O=C(CN=C(CN(c1ccccc1)c1ccccc1)Oc1ccc(Cl)cc1Cl)n1ccnc1 | TGI | > 100 µM |
| O=[N+]([O-])C(/C=C(\Cl)[N+](=O)[O-])=C(N1CCCCC1)N1CCCCC1 | TGI | > 100 µM |
| Cn1c(=O)ccc2c(=O)c3ccccc3oc21 | TGI | > 100 µM |
| CC(C(=O)n1ccnc1)N1c2ccccc2Sc2ccccc21 (stereo not drawn) | TGI | > 100 µM |

All values here come from PubChem BioAssay (NCI).
